Each entry below carries its recorded melting point.

Ask: # query: melting point of entry COc1ccc(-c2oc(CO)nc2-c2ccc(C#N)cc2)cc1
Result: 151 to 153 °C

Ask: Now the same for COc1ccc(-c2oc(C(=O)c3ccccc3)nc2-c2ccc(OC)nc2)cc1
Result: 156 to 158 °C

Ask: Now the same for COc1ccc(-c2nc(C(N)=O)oc2-c2ccc(OC)cc2)cc1
Result: 133 to 135 °C

Ask: Now the same for COc1ccc(-c2nc(C(=O)c3ccccc3)oc2-c2ccc(OC)cc2)cc1
Result: 164 to 166 °C

Ask: Now the same for COc1ccc(-c2nc(C(C)=O)oc2-c2ccc(OC)cc2)cc1
Result: 139 to 140 °C

Ask: Now the same for COCc1nc(-c2ccc(OC)cc2)c(-c2ccc(C#N)cc2)o1
Result: 85 to 86 °C

Ask: Now the same for COc1ccc(-c2nc(C(F)F)oc2-c2ccc(OCCO)cc2)cn1
Result: 126 to 128 °C

Ask: Now the same for COc1ccc(-c2nc(C(F)F)oc2-c2ccc(OCCO)cc2)cc1
Result: 114 to 116 °C

Ask: Now the same for CCOC(=O)c1nc(-c2ccc(OC)cc2)c(-c2ccc(OC)cc2)o1
Result: 95 to 97 °C

Ask: Now the same for COc1ccc(-c2oc(C(F)F)nc2-c2ccc(OC)nc2)cc1
Result: 87 to 89 °C
